# reported percent of control (POC) of FACS Geo Mean; entries follow
target: T1, hOrai1-mOrai1 ECL2 (…) protein (human/mouse chimera, UniProt Q96D31 1-301); assay: FACS, 293EBNA, RFI-POC grade; parameters: concentration or dose not given beside the values
T1 construct: also called Ch
T1 sequence (Q96D31 other isoform, or with tags, fused parts or gaps): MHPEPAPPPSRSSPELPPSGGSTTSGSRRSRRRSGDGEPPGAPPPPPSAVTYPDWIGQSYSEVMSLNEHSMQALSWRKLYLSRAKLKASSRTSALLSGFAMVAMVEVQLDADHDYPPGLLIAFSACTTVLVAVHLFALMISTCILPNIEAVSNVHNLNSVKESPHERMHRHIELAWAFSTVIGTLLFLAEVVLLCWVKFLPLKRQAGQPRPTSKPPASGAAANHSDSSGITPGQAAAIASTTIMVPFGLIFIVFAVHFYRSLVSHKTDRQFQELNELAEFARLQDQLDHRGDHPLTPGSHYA
Property Name: percent of control (POC) of FACS Geo Mean

[[record]]
binder = "mAb 5F2.1 (antibody, human IgG2, lambda, V domains shown, fully human IgG2 lambda, Campaign 2) VH: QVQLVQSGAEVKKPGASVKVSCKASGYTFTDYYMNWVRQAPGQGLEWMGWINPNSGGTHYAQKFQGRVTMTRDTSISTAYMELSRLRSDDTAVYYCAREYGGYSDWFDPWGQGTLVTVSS VL: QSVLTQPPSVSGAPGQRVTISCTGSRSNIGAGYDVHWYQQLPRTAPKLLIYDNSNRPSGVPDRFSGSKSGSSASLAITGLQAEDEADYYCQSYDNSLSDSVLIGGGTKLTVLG"
value_observed = "40 to 100%"

[[record]]
binder = "mAb 5B1.1 (antibody, human IgG2, lambda, V domains shown, fully human IgG2 lambda, Campaign 2; also called mAb 5Bl1.1) VH: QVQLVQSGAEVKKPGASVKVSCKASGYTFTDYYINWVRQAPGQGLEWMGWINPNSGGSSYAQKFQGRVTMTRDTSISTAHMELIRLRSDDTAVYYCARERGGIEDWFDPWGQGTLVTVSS VL: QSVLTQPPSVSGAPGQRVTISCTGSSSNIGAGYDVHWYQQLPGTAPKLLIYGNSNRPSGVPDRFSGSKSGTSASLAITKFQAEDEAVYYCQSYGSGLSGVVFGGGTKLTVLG"
value_observed = "40 to 100%"

[[record]]
binder = "mAb 2D2.1 (antibody, human IgG2, lambda, V domains shown, fully human IgG2 lambda, Campaign 1; also called mAb 2D.1) VH: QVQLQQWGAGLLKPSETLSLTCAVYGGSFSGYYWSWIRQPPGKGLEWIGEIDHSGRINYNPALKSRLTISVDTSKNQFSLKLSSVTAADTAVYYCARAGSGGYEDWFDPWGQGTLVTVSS VL: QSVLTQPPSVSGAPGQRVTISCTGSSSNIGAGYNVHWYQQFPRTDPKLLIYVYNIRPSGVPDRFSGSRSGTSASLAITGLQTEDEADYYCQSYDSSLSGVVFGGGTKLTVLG"
value_observed = "40 to 100%"

[[record]]
binder = "mAb 5B5.2 (antibody, human IgG2, lambda, V domains shown, fully human IgG2 lambda, Campaign 2; same chains as 5B5.1) VH: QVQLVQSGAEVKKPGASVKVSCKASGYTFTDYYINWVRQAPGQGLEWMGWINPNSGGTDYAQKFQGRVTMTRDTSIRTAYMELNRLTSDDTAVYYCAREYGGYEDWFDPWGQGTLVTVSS VL: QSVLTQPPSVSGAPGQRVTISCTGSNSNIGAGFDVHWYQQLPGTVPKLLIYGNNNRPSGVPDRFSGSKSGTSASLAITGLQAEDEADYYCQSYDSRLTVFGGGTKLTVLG"
value_observed = "40 to 100%"

[[record]]
binder = "mAb 5C1.1 (antibody, human IgG2, lambda, V domains shown, fully human IgG2 lambda, Campaign 2) VH: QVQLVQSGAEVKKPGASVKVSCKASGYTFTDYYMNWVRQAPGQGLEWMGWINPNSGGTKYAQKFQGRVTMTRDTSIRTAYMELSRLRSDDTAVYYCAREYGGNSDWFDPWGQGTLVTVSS VL: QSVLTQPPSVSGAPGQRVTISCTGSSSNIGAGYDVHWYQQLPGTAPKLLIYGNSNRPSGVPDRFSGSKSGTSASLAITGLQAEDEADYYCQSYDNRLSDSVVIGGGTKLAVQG"
value_observed = "40 to 100%"

[[record]]
binder = "mAb 5A4.2 (antibody, human IgG2, lambda, V domains shown, fully human IgG2 lambda, Campaign 2) VH: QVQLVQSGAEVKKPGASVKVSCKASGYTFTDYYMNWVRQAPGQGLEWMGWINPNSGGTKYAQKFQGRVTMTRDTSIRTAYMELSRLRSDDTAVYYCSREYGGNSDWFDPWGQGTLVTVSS VL: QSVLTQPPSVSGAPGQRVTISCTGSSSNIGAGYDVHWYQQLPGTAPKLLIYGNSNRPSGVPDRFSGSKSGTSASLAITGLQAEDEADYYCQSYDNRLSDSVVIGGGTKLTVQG"
value_observed = "40 to 100%"

